- Measurement Target: Mammalian Cathepsin L (Homo sapiens, UniProt P07711)
- Sequence (P07711 114-333): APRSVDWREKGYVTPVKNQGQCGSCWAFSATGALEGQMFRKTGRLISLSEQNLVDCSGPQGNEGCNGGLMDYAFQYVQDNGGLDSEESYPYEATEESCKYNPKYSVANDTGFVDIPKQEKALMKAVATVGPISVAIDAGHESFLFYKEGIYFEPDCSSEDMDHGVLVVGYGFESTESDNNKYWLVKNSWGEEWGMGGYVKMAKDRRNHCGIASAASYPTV
- Assay Summary: Ki competitive inhibition, cathepsin L
- Format: biochemical
- Condition Parameters: Table 1, second line of each CAP-P2 block; read-out: Ki competitive inhibition measurements vs Mammalian Cathepsin L
Experimental Readout: Ki (µM)

compound="CCCC[C@H](NC(=O)c1ccc(N(C)C)cc1)C(=O)N[C@@H]1C(=O)CO[C@H]1C [CAP7-L-Nle/drawing 71]" experimental_readout=Ki experimental_result=49.9

a = CC1OCC(=O)C1NC(=O)C(CC(C)(C)C)NC(=O)c1ccsc1 [CAP11-L-tBu-Ala/drawing 71]
b = O=C(NC(Cc1ccc(O)cc1)C(=O)NC1COCC1=O)c1ccc(O)cc1 [CAP1-L-Tyr/drawing 72]
c = CC(C)C[C@H](NC(=O)c1ccc(N(C)C)cc1)C(=O)N[C@@H]1COCC1=O [CAP7-L-Leu/drawing 73]
d = C[C@H]1OCC(=O)[C@H]1NC(=O)[C@H](Cc1ccc(O)cc1)NC(=O)c1cccs1 [CAP5-L-Tyr/drawing 69]
e = CC(C)CC[C@H](NC(=O)c1ccc(O)cc1)C(=O)N[C@H]1C(=O)CO[C@H]1C [CAP1-L-hLeu/drawing 70]
Q) Rank the items in ascending order with respect to Ki. Give your ranking as a list of the labels in the requested order.
A) b, d, c, e, a

###

- Measurement Target: Mammalian Cathepsin L (Homo sapiens, UniProt P07711)
- Assay Summary: Ki competitive inhibition, cathepsin L
- Assay type: biochemical
- Condition Parameters: Table 1, second line of each CAP-P2 block; read-out: Ki competitive inhibition measurements vs Mammalian Cathepsin L
Experimental Readout: Ki (µM)

Some molecules with recorded Ki:
molecule="CCn1nc(C)cc1C(=O)N[C@@H](Cc1ccc(O)cc1)C(=O)N[C@@H]1C(=O)CO[C@H]1C [CAP10-L-Tyr/drawing 71]" experimental_result=0.45
molecule="Cc1cc(C(=O)N[C@@H](CC(C)C)C(=O)N[C@@H]2COCC2=O)oc1C [CAP6-L-Leu/drawing 73]" experimental_result=0.19
molecule="Cc1cc(C(=O)N[C@@H](CC(C)C)C(=O)N[C@@H]2C(=O)CO[C@H]2C)oc1C [CAP6-L-Leu/drawing 71]" experimental_result=0.67
molecule="CCCC[C@H](NC(=O)c1ccccc1)C(=O)N[C@H]1COCC1=O [CAP3-L-Nle/drawing 72]" experimental_result=2.8

P = C[C@H]1OCC(=O)[C@H]1NC(=O)[C@H](CC(C)(C)C)NC(=O)c1ccc(N(C)C)cc1 [CAP7-L-tBu-Ala/drawing 69]
Q = CC(C)C[C@H](NC(=O)N1CCOCC1)C(=O)N[C@H]1C(=O)CO[C@H]1C [CAP9-L-Leu/drawing 70]
R = CCn1nc(C)cc1C(=O)NC(Cc1ccc(O)cc1)C(=O)NC1COCC1=O [CAP10-L-Tyr/drawing 72]
Q) Arrange these molecules by their Ki, starting with the largest number. Give your ranking as a list of the labels in the requested order.
A) P, Q, R

P = C[C@@H]1OCC(=O)[C@@H]1NC(=O)[C@H](Cc1ccc(O)cc1)NC(=O)c1ccc(O)cc1 [CAP1-L-Tyr/drawing 70]
Q = C[C@H]1OCC(=O)[C@H]1NC(=O)[C@H](CC(C)(C)C)NC(=O)c1cccs1 [CAP5-L-tBu-Ala/drawing 69]
Q) Lower value for measured Ki? Options: P , Q Reply briefly: the label of your chosen item.
A) P

a = CC(C)C[C@H](NC(=O)c1ccc(O)cc1)C(=O)N[C@H]1C(=O)CO[C@H]1C [CAP1-L-Leu/drawing 70]
b = Cc1cc(C(=O)N[C@@H](Cc2ccc(O)cc2)C(=O)N[C@H]2C(=O)CO[C@H]2C)oc1C [CAP6-L-Tyr/drawing 70]
c = CC(C)CC[C@H](NC(=O)N1CCOCC1)C(=O)N[C@@H]1C(=O)CO[C@@H]1C [CAP9-L-hLeu/drawing 69]
d = Cc1cc(C(=O)N[C@@H](CC(C)C)C(=O)N[C@H]2C(=O)CO[C@H]2C)oc1C [CAP6-L-Leu/drawing 70]
Q) Arrange these molecules by their Ki, starting with the largest number. Give your ranking as a list of the labels in the requested order.
A) c, a, d, b

a = C[C@@H]1OCC(=O)[C@@H]1NC(=O)[C@H](Cc1ccc(O)cc1)NC(=O)c1ccccc1 [CAP3-L-Tyr/drawing 70]
b = CCn1nc(C)cc1C(=O)N[C@@H](Cc1ccc(O)cc1)C(=O)N[C@H]1C(=O)CO[C@H]1C [CAP10-L-Tyr/drawing 70]
Q) Please state the entry with greater Ki among a and b . Reply briefly: the label of your chosen item.
A) a
(a: 1.4 µM, b: 0.46 µM)

P = CC(C)C[C@H](NC(=O)c1ccc(N(C)C)cc1)C(=O)N[C@H]1COCC1=O [CAP7-L-Leu/drawing 72]
Q = C[C@H]1OCC(=O)[C@H]1NC(=O)[C@H](CC(C)(C)C)NC(=O)c1ccc(O)cc1 [CAP1-L-tBu-Ala/drawing 69]
R = CCn1nc(C)cc1C(=O)N[C@@H](Cc1ccc(O)cc1)C(=O)N[C@@H]1COCC1=O [CAP10-L-Tyr/drawing 73]
Q) Arrange these molecules by their Ki, starting with the largest number. Give your ranking as a list of the labels in the requested order.
A) Q, P, R
(Q: 3.9 µM, P: 0.69 µM, R: 0.1 µM)

1 = Cc1cc(C(=O)N[C@@H](Cc2ccc(O)cc2)C(=O)N[C@@H]2COCC2=O)oc1C [CAP6-L-Tyr/drawing 73]
2 = C[C@H]1OCC(=O)[C@H]1NC(=O)[C@H](CC(C)(C)C)NC(=O)N1CCOCC1 [CAP9-L-tBu-Ala/drawing 69]
Q) Please state the entry with greater Ki among 1 and 2 . Reply briefly: the label of your chosen item.
A) 2
(2: 30.4 µM, 1: 0.14 µM)

A = CCCC[C@H](NC(=O)c1ccc(O)cc1)C(=O)N[C@H]1COCC1=O [CAP1-L-Nle/drawing 72]
B = CCCCC(NC(=O)c1ccc(N(C)C)cc1)C(=O)NC1C(=O)COC1C [CAP7-L-Nle/drawing 70]
C = CCn1nc(C)cc1C(=O)N[C@@H](CC(C)C)C(=O)N[C@@H]1C(=O)CO[C@@H]1C [CAP10-L-Leu/drawing 69]
Q) Rank the items in ascending order with respect to Ki. Give your ranking as a list of the labels in the requested order.
A) C, A, B
(C: 0.71 µM, A: 3.3 µM, B: 46.7 µM)

###

- Measurement Target: UniProt P07711
- Assay Summary: Ki competitive inhibition, cathepsin L
- Assay type: biochemical
- Condition Parameters: read-out: Ki cathepsin L
pKi: −log10 of the molar value.
Experimental Readout: pKi

CC[C@@H]1OCC(=O)[C@H]1NC(=O)[C@H](CC(C)(C)C(C)C)NC(=O)c1ccoc1 [CAP8-Hybrid3/drawing 68] has a reported pKi of < 4.00

###

- Measurement Target: Mammalian Cathepsin S (Homo sapiens, UniProt P25774)
- Sequence (P25774 115-331): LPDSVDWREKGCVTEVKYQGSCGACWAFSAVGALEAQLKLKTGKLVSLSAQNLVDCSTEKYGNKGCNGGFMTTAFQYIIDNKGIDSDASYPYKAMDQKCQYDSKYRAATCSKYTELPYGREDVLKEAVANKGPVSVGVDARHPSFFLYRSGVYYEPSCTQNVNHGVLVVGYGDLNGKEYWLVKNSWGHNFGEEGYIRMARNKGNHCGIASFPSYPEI
- Assay Summary: Ki competitive inhibition, mammalian cathepsin S
- Type: biochemical
- Condition Parameters: Table 1, first line of each CAP-P2 block; read-out: Ki competitive inhibition measurements vs Mammalian Cathepsin S
Experimental Readout: Ki (nM)

Some compounds with recorded Ki:
compound="CCn1nc(C)cc1C(=O)N[C@@H](Cc1ccc(O)cc1)C(=O)N[C@@H]1C(=O)CO[C@H]1C [CAP10-L-Tyr/drawing 71]" readout_unit=nM experimental_result=4100
compound="CCn1nc(C)cc1C(=O)N[C@@H](Cc1ccc(O)cc1)C(=O)N[C@@H]1COCC1=O [CAP10-L-Tyr/drawing 73]" readout_unit=nM experimental_result=3700
compound="CC(C)(C)CC(NC(=O)c1ccoc1)C(=O)NC1COCC1=O [CAP8-L-tBu-Ala/drawing 72]" readout_unit=nM experimental_result=210
compound="CC(C)CC[C@H](NC(=O)c1ccoc1)C(=O)N[C@@H]1C(=O)CO[C@@H]1C [CAP8-L-hLeu/drawing 69]" readout_unit=nM experimental_result=970
compound="CCCC[C@H](NC(=O)c1ccoc1)C(=O)N[C@@H]1C(=O)CO[C@@H]1C [CAP8-L-Nle/drawing 69]" readout_unit=nM experimental_result=1500
compound="C[C@H]1OCC(=O)[C@H]1NC(=O)[C@H](Cc1ccc(O)cc1)NC(=O)Cc1ccccc1 [CAP2-L-Tyr/drawing 69]" readout_unit=nM experimental_result=3200

P = CC(C)CC[C@H](NC(=O)c1ccoc1)C(=O)N[C@H]1C(=O)CO[C@H]1C [CAP8-L-hLeu/drawing 70]
Q = CCn1nc(C)cc1C(=O)NC(Cc1ccc(O)cc1)C(=O)NC1COCC1=O [CAP10-L-Tyr/drawing 72]
Q) Please state the entry with greater Ki among P and Q . Reply briefly: the label of your chosen item.
A) Q

a = CCCC[C@H](NC(=O)c1ccc(O)cc1)C(=O)N[C@@H]1COCC1=O [CAP1-L-Nle/drawing 73]
b = CCn1nc(C)cc1C(=O)N[C@@H](Cc1ccc(O)cc1)C(=O)N[C@H]1C(=O)CO[C@H]1C [CAP10-L-Tyr/drawing 70]
Q) Please state the entry with greater Ki among a and b . Reply briefly: the label of your chosen item.
A) a

1 = Cc1cc(C(=O)N[C@@H](CC(C)C)C(=O)N[C@@H]2COCC2=O)oc1C [CAP6-L-Leu/drawing 73]
2 = Cc1cc(C(=O)N[C@@H](Cc2ccc(O)cc2)C(=O)N[C@@H]2COCC2=O)oc1C [CAP6-L-Tyr/drawing 73]
Q) Please state the entry with greater Ki among 1 and 2 . Reply briefly: the label of your chosen item.
A) 2

I = CCCC[C@H](NC(=O)c1ccc(O)cc1)C(=O)N[C@@H]1C(=O)CO[C@H]1C [CAP1-L-Nle/drawing 71]
II = C[C@@H]1OCC(=O)[C@@H]1NC(=O)[C@H](Cc1ccc(O)cc1)NC(=O)c1ccccc1 [CAP3-L-Tyr/drawing 70]
Q) Lower value for measured Ki? Options: I , II Reply briefly: the label of your chosen item.
A) II
